# Test system: EfPiwi piRISC loaded with L1MC piRNA (26 nt)
# test_summary: pre-steady-state target cleavage rate (min^-1); auxiliary factor: 500 nM Ephydatia muelleri Gtsf1; guide: L1MC piRNA 5'p-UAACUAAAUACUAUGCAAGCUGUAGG; MIWI and MILI are mouse PIWI proteins and EfPiwi is from a freshwater sponge; tags in brackets are library labels; higher = faster piRNA-guided slicing of the target
Field: pre-steady-state target cleavage rate. Provide a value for each of the sequences that follow.

EfPiwi piRISC loaded with L1MC piRNA (26 nt) assay, sequence UCCUGGUACAGCUUGCAAGUAUUUAGUUA , recorded pre-steady-state target cleavage rate = 0.00546

EfPiwi piRISC loaded with L1MC piRNA (26 nt) assay, sequence UCCUGCUACAGCUUGCGAUAGUAUUUAGUUA , recorded pre-steady-state target cleavage rate = 0.00987

EfPiwi piRISC loaded with L1MC piRNA (26 nt) assay, sequence UCCUCCAACAGCUUGCAUAGUAUUUACUUA , recorded pre-steady-state target cleavage rate = 0.00475

EfPiwi piRISC loaded with L1MC piRNA (26 nt) assay, sequence UCCUGGAACAGUCUUGCAUAGUAUUUAGUUA , recorded pre-steady-state target cleavage rate = 0.00822

EfPiwi piRISC loaded with L1MC piRNA (26 nt) assay, sequence UCCUGGAACAGCAUGCAUAGUAUUUAGUUA , recorded pre-steady-state target cleavage rate = 0.0466

EfPiwi piRISC loaded with L1MC piRNA (26 nt) assay, sequence UCCUCCUACUGCAUGCAUAGUAUUUAGUUA , recorded pre-steady-state target cleavage rate = 0.0706

EfPiwi piRISC loaded with L1MC piRNA (26 nt) assay, sequence UCCUGGAUCAGCUUGCAUAGUGUUUAGUUA , recorded pre-steady-state target cleavage rate = 0.0156

EfPiwi piRISC loaded with L1MC piRNA (26 nt) assay, sequence UCCUGCUACAGCUUGCUUAGUAUUUAGAUA , recorded pre-steady-state target cleavage rate = 0.00495

EfPiwi piRISC loaded with L1MC piRNA (26 nt) assay, sequence UCCUGGUUCAGCUUCCAUAGUAUUUAGUUA , recorded pre-steady-state target cleavage rate = 0.00303

EfPiwi piRISC loaded with L1MC piRNA (26 nt) assay, sequence UCCUGCUACACCUUCCAUAGUAUUUAGUUA , recorded pre-steady-state target cleavage rate = 0.00334

EfPiwi piRISC loaded with L1MC piRNA (26 nt) assay, sequence UCCUGGAUGUCCGUGCAUAGUAUUUAGUUA , recorded pre-steady-state target cleavage rate = 0.00483

EfPiwi piRISC loaded with L1MC piRNA (26 nt) assay, sequence UCCUGGUACAGCUUGCAUGUAUUUAGUUA , recorded pre-steady-state target cleavage rate = 0.0036

EfPiwi piRISC loaded with L1MC piRNA (26 nt) assay, sequence UCCUGGAUCAGCUUCGCAUAGUAUUUAGUUA , recorded pre-steady-state target cleavage rate = 0.0389

EfPiwi piRISC loaded with L1MC piRNA (26 nt) assay, sequence UCCUGGUACAGCUUGCAUAGUAUAUAGUUA , recorded pre-steady-state target cleavage rate = 0.00533

EfPiwi piRISC loaded with L1MC piRNA (26 nt) assay, sequence UCCUGGAACAGCUAGCAUAGUAUUUAGAUA , recorded pre-steady-state target cleavage rate = 0.0041

EfPiwi piRISC loaded with L1MC piRNA (26 nt) assay, sequence UCCUGGAAGAGCUUGCAUAGUAUUUUGUUA , recorded pre-steady-state target cleavage rate = 0.00497

EfPiwi piRISC loaded with L1MC piRNA (26 nt) assay, sequence UCCUGCUACAGCUUGCAUAGUUUUUACAAA , recorded pre-steady-state target cleavage rate = 0.00339

EfPiwi piRISC loaded with L1MC piRNA (26 nt) assay, sequence UCCUGCUUCAGCUUGCAUAGUAUUUAGAAA , recorded pre-steady-state target cleavage rate = 0.00434

EfPiwi piRISC loaded with L1MC piRNA (26 nt) assay, sequence UCCUGGAUGUGGAUGCAUAGUAUUUAGAAA , recorded pre-steady-state target cleavage rate = 0.00388

EfPiwi piRISC loaded with L1MC piRNA (26 nt) assay, sequence UCCUGGCACAGCUUGCAUAGUAUUUAGUUA , recorded pre-steady-state target cleavage rate = 0.0252

EfPiwi piRISC loaded with L1MC piRNA (26 nt) assay, sequence UCCUGGAACAGCUUGCAUAGUACUUUAGUUA , recorded pre-steady-state target cleavage rate = 0.00922

EfPiwi piRISC loaded with L1MC piRNA (26 nt) assay, sequence UCCUGGAACAGCUUGCAUAGUUAUUAGUUA , recorded pre-steady-state target cleavage rate = 0.00251

EfPiwi piRISC loaded with L1MC piRNA (26 nt) assay, sequence UCCUGGAUGUCCUUGCAUAGUAUCUAGUUA , recorded pre-steady-state target cleavage rate = 0.00775

EfPiwi piRISC loaded with L1MC piRNA (26 nt) assay, sequence UCCUGGUAGUCCUUGCAUAGUAUUUAGUUA , recorded pre-steady-state target cleavage rate = 0.00556

EfPiwi piRISC loaded with L1MC piRNA (26 nt) assay, sequence UCCUGGAUGACCUAGCAUAGUAUUUAGUUA , recorded pre-steady-state target cleavage rate = 0.0121

EfPiwi piRISC loaded with L1MC piRNA (26 nt) assay, sequence UCCUGGAAGCAGCUUGCAUAGUAUUUAGUUA , recorded pre-steady-state target cleavage rate = 0.0569

EfPiwi piRISC loaded with L1MC piRNA (26 nt) assay, sequence UCCUGGAUGUGACUUGCAUAGUAUUUAGUUA , recorded pre-steady-state target cleavage rate = 0.00497

EfPiwi piRISC loaded with L1MC piRNA (26 nt) assay, sequence UCCUCCUACAGCUUGCAUAGUUUUAAGUUA , recorded pre-steady-state target cleavage rate = 0.00431

EfPiwi piRISC loaded with L1MC piRNA (26 nt) assay, sequence UCCUCCAACAGCUUGCAUAGAAUUUAGUUA , recorded pre-steady-state target cleavage rate = 0.00468

EfPiwi piRISC loaded with L1MC piRNA (26 nt) assay, sequence UCCUGCUACAACUUGCAUAGUAUUUAGUUA , recorded pre-steady-state target cleavage rate = 0.00776

EfPiwi piRISC loaded with L1MC piRNA (26 nt) assay, sequence UCCUGGUACAGCUUGCAUAAUAUUUAGUUA , recorded pre-steady-state target cleavage rate = 0.00307

EfPiwi piRISC loaded with L1MC piRNA (26 nt) assay, sequence UCCUGCUACAGCUUGCAUAGUAUUUAGCUUA , recorded pre-steady-state target cleavage rate = 0.00522

EfPiwi piRISC loaded with L1MC piRNA (26 nt) assay, sequence UCCUGGAACAGCAUGCUUAGUAUUUAGUUA , recorded pre-steady-state target cleavage rate = 0.00591

EfPiwi piRISC loaded with L1MC piRNA (26 nt) assay, sequence UCCUGGAACAGCAUUGCAUAGUAUUUAGUUA , recorded pre-steady-state target cleavage rate = 0.015

EfPiwi piRISC loaded with L1MC piRNA (26 nt) assay, sequence UCCUCCUACUCGUUGCAUAGUAUUUAGUAA , recorded pre-steady-state target cleavage rate = 0.00477

EfPiwi piRISC loaded with L1MC piRNA (26 nt) assay, sequence UCCUCCUAGUGCUUGCAUAGUAUUUACAAA , recorded pre-steady-state target cleavage rate = 0.00293

EfPiwi piRISC loaded with L1MC piRNA (26 nt) assay, sequence UCCUCCUACAGCUUGCAUACUAUUUACAAA , recorded pre-steady-state target cleavage rate = 0.0038

EfPiwi piRISC loaded with L1MC piRNA (26 nt) assay, sequence UCCUCCUACAGCUUCGAUAGUAUUUAGUUA , recorded pre-steady-state target cleavage rate = 0.0137

EfPiwi piRISC loaded with L1MC piRNA (26 nt) assay, sequence UCCUGCUUCAGCUUGCAUAGUAAUUAGUUA , recorded pre-steady-state target cleavage rate = 0.00863

EfPiwi piRISC loaded with L1MC piRNA (26 nt) assay, sequence UCCUCCAUGAGCUUGCAUAGUAUUUAGAAA , recorded pre-steady-state target cleavage rate = 0.00475
